experiment: GFP fluorescence inhibitors and quenchers, dose response, artefact control for Rin1-Abl interaction inhibitor project, biochemical (AID 602182); conditions: GFP fluorescence interference/quenching counterscreen;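 also: ABL1-eGFP fusion protein alone without its RIN1 binding partner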
The other results are listed elsewhere or left out. The source made the active and inactive calls. No rule for the calls is given here.
Assign IC50 to each entry below.

According to the records, this molecule `Nc1cc(=O)c2[nH]cnc2[nH]1` displays IC50 of > 67.7 µM (inactive)

Note to self: IC50 recorded for `Cc1ccccc1CN1C[C@@H]2C[C@@H](c3ccc4nsnc4c3)N3CCC[C@@]23C1=O` was > 67.5 µM (inactive)

Notebook: `CN(C(=O)c1ccc(NC(=O)Cc2cccc(NC(=O)C3CCN(C(=O)c4ccccc4)CC3)c2)cc1)C1CC1` , IC50 read as > 67.6 µM (inactive)

Recorded result, CC(OC(=O)c1ccccc1NCCO)C(=O)Nc1ccnn1C(C)C (stereo not given) , IC50: > 67.5 µM (inactive)

Value of IC50 reported for the molecule `CCOC(=O)N1CCN(C(=O)C2CCN(c3ncnc4c3sc3cccc(F)c34)CC2)CC1` is > 67.6 µM (inactive)
